target_entity: ATP-dependent translocase ABCB1 (Homo sapiens, UniProt P08183)
Sequence (P08183 whole entry): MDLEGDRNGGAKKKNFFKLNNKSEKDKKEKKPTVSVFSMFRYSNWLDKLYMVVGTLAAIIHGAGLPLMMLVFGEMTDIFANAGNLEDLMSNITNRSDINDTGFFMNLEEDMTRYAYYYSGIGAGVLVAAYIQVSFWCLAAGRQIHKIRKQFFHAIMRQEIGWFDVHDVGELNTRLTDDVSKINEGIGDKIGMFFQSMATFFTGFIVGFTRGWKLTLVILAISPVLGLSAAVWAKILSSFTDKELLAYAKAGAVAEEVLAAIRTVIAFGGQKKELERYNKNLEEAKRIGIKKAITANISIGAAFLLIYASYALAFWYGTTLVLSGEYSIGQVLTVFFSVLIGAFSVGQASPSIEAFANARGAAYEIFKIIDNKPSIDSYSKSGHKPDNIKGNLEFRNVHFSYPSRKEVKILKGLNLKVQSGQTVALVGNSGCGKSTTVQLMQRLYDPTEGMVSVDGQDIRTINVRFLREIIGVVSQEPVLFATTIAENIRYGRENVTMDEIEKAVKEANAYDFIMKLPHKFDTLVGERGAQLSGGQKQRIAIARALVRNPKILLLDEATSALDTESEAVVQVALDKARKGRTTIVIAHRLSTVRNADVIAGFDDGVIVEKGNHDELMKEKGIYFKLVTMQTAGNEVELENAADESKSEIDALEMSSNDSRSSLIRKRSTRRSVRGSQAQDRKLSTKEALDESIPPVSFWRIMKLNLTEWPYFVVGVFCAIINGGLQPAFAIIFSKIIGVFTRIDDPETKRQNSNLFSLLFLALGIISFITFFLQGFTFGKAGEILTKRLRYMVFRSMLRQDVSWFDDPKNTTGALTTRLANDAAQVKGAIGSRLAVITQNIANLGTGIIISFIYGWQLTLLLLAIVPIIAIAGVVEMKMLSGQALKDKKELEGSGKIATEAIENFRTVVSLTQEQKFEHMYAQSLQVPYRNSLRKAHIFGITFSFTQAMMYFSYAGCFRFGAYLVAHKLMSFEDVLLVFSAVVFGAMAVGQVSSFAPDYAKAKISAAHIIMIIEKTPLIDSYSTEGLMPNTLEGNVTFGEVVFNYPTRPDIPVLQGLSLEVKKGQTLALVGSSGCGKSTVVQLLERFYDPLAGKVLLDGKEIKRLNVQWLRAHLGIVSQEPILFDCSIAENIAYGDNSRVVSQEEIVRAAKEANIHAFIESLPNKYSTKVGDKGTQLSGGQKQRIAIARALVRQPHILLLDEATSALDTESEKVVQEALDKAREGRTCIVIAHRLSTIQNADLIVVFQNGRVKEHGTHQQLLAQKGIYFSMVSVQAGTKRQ
procedure_text: Inhibition of MDR1-mediated efflux-pump activity in mouse L5178Y cells expressing human MDR1 assessed as fluorescence activity ratio at 2 uM preincubated for 10 mins followed by rhodamine-123 addition measured after 20 mins by flow cytometry
Format: cell-based
metric_name: Ratio

- molecule: "C[C@H](C/C=C/C(C)(C)O)[C@H]1CC[C@@]2(C)[C@@H]3[C@@H](O)C=C4[C@@H](CC[C@H](O)C4(C)C)[C@]3(C)C[C@@H](O)[C@]12C"
  number: 0.7
- molecule: "CC(C)=C[C@H](O)C[C@@H](C)[C@H]1CC[C@@]2(C)[C@@H]3[C@@H](O)C=C4[C@@H](CC[C@H](O)[C@]4(C)CO)[C@]3(C)CC[C@]12C"
  number: 1.5
- molecule: "COc1ccc(C(=O)O[C@H]2CC[C@@H]3C(=C[C@H](OC)[C@@H]4[C@@]3(C)CC[C@]3(C)[C@@H]([C@H](C)C[C@H](C=C(C)C)OC(=O)c5ccc(OC)cc5)CC[C@@]43C)C2(C)C)cc1 [KARAVOATE N]"
  number: 0.9
- molecule: "CC(C)=C[C@H](O)C[C@@H](C)[C@H]1CC[C@@]2(C)[C@@H]3[C@@H](O[C@H]4O[C@@H](CO)[C@H](O)[C@H](O)[C@@H]4O)C=C4[C@@H](CC[C@H](O)C4(C)C)[C@]3(C)CC[C@]12C"
  number: 0.9
